Provenance of the data: ChEMBL document CHEMBL3132778

# Test system: Candida albicans
# experiment notes: Antifungal activity against Candida albicans after 24 hrs by serial dilution method
# Type: functional
readout name: MIC80

{"columns": ["compound", "recorded measurement"],
 "data": [
  ["Cc1ccc2c(c1)c1c(n2CC(O)CNc2ccccc2)CCCC1 (stereo unspecified)", "> 64 µg/mL"],
  ["Cc1ccc2c(c1)c1c(n2CCCNCc2cccc(Cl)c2)CCCC1", "> 64 µg/mL"],
  ["OCc1ccc2c(c1)c1c(n2CCCNCc2ccccc2)CCCC1", "> 64 µg/mL"],
  ["Cc1ccc2c(c1)c1c(n2CCCNCc2ccccc2Cl)CCCC1", "> 64 µg/mL"],
  ["Cc1ccc2c(c1)c1c(n2CCCNCc2ccc(Cl)cc2Cl)CCCC1", "> 64 µg/mL"],
  ["Cc1ccc2c(c1)c1c(n2CCCNC2CCCCC2)CCCC1", "> 64 µg/mL"]
]}
